FYI, the data here is from patent US20040248804A1.

# measurement description: Plasma leuprolide pharmacokinetics after IV, SQ and intranasal (IN) administration, five-way crossover volunteer trial, ELISA
# cond: female, human, in vivo
measure name: bioavailability
A complete answer gives the number followed by the unit.

Fill in: bioavailability of CC(=O)O.CCNC(=O)[C@@H]1CCCN1C(=O)[C@H](CCCNC(=N)N)NC(=O)[C@H](CC(C)C)NC(=O)[C@@H](CC(C)C)NC(=O)[C@H](Cc1ccc(O)cc1)NC(=O)[C@H](CO)NC(=O)[C@H](Cc1c[nH]c2ccccc12)NC(=O)[C@H](Cc1c[nH]cn1)NC(=O)[C@@H]1CCC(=O)N1 [leuprolide] is ___ 95%

====

# measurement description: clinical
# cond: female, human, in vivo, inhaled or intranasal, 6 mg
measure name: Cmax (ng/mL)
Report the figure in ng/mL without appending any unit label.

For the molecule shown here, CC(=O)O.CCNC(=O)[C@@H]1CCCN1C(=O)[C@H](CCCNC(=N)N)NC(=O)[C@H](CC(C)C)NC(=O)[C@@H](CC(C)C)NC(=O)[C@H](Cc1ccc(O)cc1)NC(=O)[C@H](CO)NC(=O)[C@H](Cc1c[nH]c2ccccc12)NC(=O)[C@H](Cc1c[nH]cn1)NC(=O)[C@@H]1CCC(=O)N1 [leuprolide, acetate salt] , give the reported Cmax. 22

====

# measurement description: clinical
# cond: female, human, in vivo, inhaled or intranasal, 6 mg
measure name: AUC
Hi, when you answer, please include the unit after the number. Thanks!

So what does the record say about AUC for CC(=O)O.CCNC(=O)[C@@H]1CCCN1C(=O)[C@H](CCCNC(=N)N)NC(=O)[C@H](CC(C)C)NC(=O)[C@@H](CC(C)C)NC(=O)[C@H](Cc1ccc(O)cc1)NC(=O)[C@H](CO)NC(=O)[C@H](Cc1c[nH]c2ccccc12)NC(=O)[C@H](Cc1c[nH]cn1)NC(=O)[C@@H]1CCC(=O)N1 [leuprolide, acetate salt] ? 56 ng·h/mL
